What % Inhibition was measured for each of the following?
test system: P. falciparum stage V gametocytes; parameters: BacTiter-Glo ATP luminescence viability of purified stage V gametocytes in 384-well plates, per cent inhibition versus DMSO; details: 48 h, 5 µM; inhibitor
The whole screen tested about 13,000 compounds, of which about 3,200 (25%) showed an effect of 50% or more. The list shows a part of the results.
Use % as the unit, but write only the number.

Prompt line: For CN(c1ccc2c(c1)nc(NCc1ccccc1)n2C)c1ccnc(Nc2ccc(CS(C)(=O)=O)cc2)n1 [TCMDC-138740] , write its % Inhibition.
Response line: 25.8

Prompt line: For Cn1ccnc1Sc1ncccc1[N+](=O)[O-] [TCMDC-123944] , write its % Inhibition.
Response line: 5.094

Prompt line: For Cc1cc(C(=O)CN2C(=O)NC3(CCCc4ccccc43)C2=O)c(C)n1Cc1ccc(F)cc1 (stereo not shown) [TCMDC-125057] , write its % Inhibition.
Response line: -27.15

Prompt line: For CON=Cc1ccn(-c2ccc(O)c3c2C[C@H]2C[C@H]4[C@H](N(C)C)C(=O)C(C(N)=O)=C(O)[C@@]4(O)C(=O)C2=C3O)c1 [TCMDC-138646] , write its % Inhibition.
Response line: 4.088

----------
tested on: P. falciparum stage V gametocytes; set-up: BacTiter-Glo ATP luminescence viability of purified stage V gametocytes in 384-well plates, per cent inhibition versus DMSO; conditions: 48 h, 5 µM; inhibitor
The campaign covered roughly 13,000 compounds. About 3,200 (25%) showed an effect of 50% or more. Some of the results follow.
Endpoint label: % Inhibition (%)
Use % as the unit, but write only the number.

Prompt line: For C[C@@H]1CC[C@H](NC(=O)[C@H](CC2CCCC2)NC(=O)N2CCNCC2)C(=O)CN1S(=O)(=O)c1ccccn1 [TCMDC-141571] , write its % Inhibition.
Response line: 57.62

Prompt line: For COc1ccccc1CNC(=O)c1cc(OC)c(OC)cc1NC(=O)c1cccs1 [TCMDC-125022] , write its % Inhibition.
Response line: 22.04

Prompt line: For CCC1(CC)N=C(N)N=C(N)C1c1ccc(Cl)c(Cl)c1 (stereo not drawn) [TCMDC-137597] , write its % Inhibition.
Response line: 8.83

Prompt line: For CC(C)CCNCC(O)Cn1c2ccc(Cl)cc2c2cc(Cl)ccc21 (stereo not drawn) [TCMDC-125673] , write its % Inhibition.
Response line: 69.1

Prompt line: For O=C(Nc1cccc(N2CCC(NCCCn3ccnc3)CC2)c1)c1cccc(C(F)(F)F)c1 [TCMDC-124663] , write its % Inhibition.
Response line: 36.86

Prompt line: For CC1CCCC(Nc2noc(-c3sccc3Br)n2)C1 (stereo not drawn) [TCMDC-134184] , write its % Inhibition.
Response line: -4.566

Prompt line: For CN1CCN(Cc2cccc(-c3cc4nccc(Nc5ccc(Oc6ccccc6)cc5)c4cc3Cl)c2)CC1 [TCMDC-138460] , write its % Inhibition.
Response line: 0.7486

Prompt line: For O=C(Nc1ccc(N2CCNCC2)nc1)c1oc(-c2ccccc2)nc1C(F)(F)F [TCMDC-135131] , write its % Inhibition.
Response line: 3.26

Prompt line: For COc1ccc(-c2nc(NC(=O)Cc3ccc(OC)c(OC)c3)sc2C)cc1 [TCMDC-123619] , write its % Inhibition.
Response line: 10.74

Prompt line: For Cc1noc(C)c1-c1cccc(CNCc2ccc(-c3cccc(-c4nc5cccc(C)c5[nH]4)c3)cc2)c1.O=C(O)C(F)(F)F [TCMDC-133052] , write its % Inhibition.
Response line: -22.75

Prompt line: For Cc1ccccc1OCCCc1c(C)nc(N)nc1N [TCMDC-138070] , write its % Inhibition.
Response line: -46.3

Prompt line: For Cc1ccc(O)cc1Nc1ccnc2cc(-c3csc(CN4CCN(C)CC4)n3)ccc12 [TCMDC-138459] , write its % Inhibition.
Response line: 29.46

Prompt line: For N#Cc1ccc(/C=C/C(=O)NCCCCCN2CCCN(C(=O)Nc3ccc(Cl)c(C(F)(F)F)c3)CC2)cc1 [TCMDC-136110] , write its % Inhibition.
Response line: 28.79

Prompt line: For CN1CCN(Cc2cccc(-c3ccc4c(Nc5ccc(Oc6cccnc6)cc5)ccnc4c3)c2)CC1 [TCMDC-138489] , write its % Inhibition.
Response line: 97.22

Prompt line: For c1ccc(Oc2ccc(Nc3ccnc4cc(-c5cccc(CN6CCOCC6)c5)ccc34)cc2)cc1 [TCMDC-138475] , write its % Inhibition.
Response line: -43.1

Prompt line: For COc1cc2ncnc(Nc3ccc(Br)c(Cl)c3)c2cc1OC [TCMDC-131909] , write its % Inhibition.
Response line: 14.07

Prompt line: For COc1ccc(-c2nc(NC(=O)CSc3ccccc3)sc2C)cc1 [TCMDC-123814] , write its % Inhibition.
Response line: 23.99

Prompt line: For COCCNCc1nc(-c2ccc3c(Nc4ccc(F)c(O)c4)ccnc3c2)cs1 [TCMDC-138411] , write its % Inhibition.
Response line: 27.64

Prompt line: For COCCNCC(O)Cn1c2ccc(Cl)cc2c2cc(Cl)ccc21 (stereo not drawn) [TCMDC-123535] , write its % Inhibition.
Response line: 54.28

Prompt line: For N#Cc1ccc(N2CCN(Cc3ccc(-c4cccc(-c5nc6ccccc6[nH]5)c4)cc3)CC2)nc1.O=C(O)C(F)(F)F [TCMDC-133918] , write its % Inhibition.
Response line: 6.117

Prompt line: For CCCCCN1CCC(NC(=O)c2ccc(C(=O)Nc3ccc(C(C)C)cc3)cc2)C1 (stereo not drawn) [TCMDC-136744] , write its % Inhibition.
Response line: -20.17

Prompt line: For COc1ccc(-c2nc(NC(=O)CS(=O)(=O)c3ccc(OC)cc3)sc2C)cc1 [TCMDC-125152] , write its % Inhibition.
Response line: -0.7393

Prompt line: For COc1ccc(-c2nc(NC(=O)Cc3ccc4c(c3)OCCO4)sc2C)cc1 [TCMDC-124374] , write its % Inhibition.
Response line: 41.12

Prompt line: For CCNCCCC(C)Nc1ccnc2cc(Cl)ccc12 (stereo not drawn) [TCMDC-125876] , write its % Inhibition.
Response line: 27.58

Prompt line: For O=S(=O)(NC1=NCCC1)c1cccc(Nc2nc(C(F)(F)F)nc3ccccc23)c1 [TCMDC-124821] , write its % Inhibition.
Response line: -4.384

Prompt line: For COc1ccc(-c2nc(NC(=O)CSc3ccc([N+](=O)[O-])cc3)sc2C)cc1 [TCMDC-124323] , write its % Inhibition.
Response line: 91.56

Prompt line: For COc1ccc(OCC(=O)Nc2nc(-c3ccc(OC)cc3)c(C)s2)cc1 [TCMDC-124330] , write its % Inhibition.
Response line: 22.09

Prompt line: For CC(C)C[C@H](NC(=O)c1cc2cc(OCCN3CCNCC3)ccc2o1)C(=O)NC1CC[C@@H](C)N(C(=O)Nc2ccc(Cl)cc2)CC1=O (stereo partly drawn) [TCMDC-133539] , write its % Inhibition.
Response line: 8.489

Prompt line: For COc1ccc(Cl)cc1N1CCN(CCCNC(=O)c2ccc(-c3nc4ccc(C(F)(F)F)cc4[nH]3)c(C)c2)CC1 [TCMDC-140121] , write its % Inhibition.
Response line: -20.72

Prompt line: For CCC(CO)NCC(O)Cn1c2ccc(Cl)cc2c2cc(Cl)ccc21 (stereo not drawn) [TCMDC-125711] , write its % Inhibition.
Response line: 55

Prompt line: For Oc1cc(Nc2ccnc3cc(-c4cccc(CN5CCCCC5)c4)ccc23)c(F)cc1Cl [TCMDC-138433] , write its % Inhibition.
Response line: 38.27

Prompt line: For COc1ccc(Cl)cc1N1CCN(CCCNC(=O)c2ccc(-c3nc4c(C)cccc4[nH]3)s2)CC1 [TCMDC-140050] , write its % Inhibition.
Response line: -10.33

Prompt line: For CCCCCCN1CCCN(Cc2ccc(C(=O)Nc3ccc(C(C)(C)C)cc3)cc2)CC1 [TCMDC-136446] , write its % Inhibition.
Response line: -5.342

----------
test system: P. falciparum stage V gametocytes; design: BacTiter-Glo ATP luminescence viability of purified stage V gametocytes in 384-well plates, per cent inhibition versus DMSO; conditions: 48 h, 5 µM; inhibitor
About 3,200 (25%) of roughly 13,000 compounds showed an effect of 50% or more. The list shows a part of the results.
Parameter threshold = 10%. Response is MET when % Inhibition meets or exceeds it, else NOT MET.

Prompt line: Check this compound for % Inhibition at or above 10%: `CN(CCCNc1ccc(C(=O)Nc2ccc(C(F)(F)F)cc2)cc1[N+](=O)[O-])Cc1ccccc1`
Response line: NOT MET

Prompt line: Check this compound for % Inhibition at or above 10%: `Cc1ccc(Cn2nc(N3CCNCC3)ccc2=O)cc1NC(=O)Nc1ccc(-c2ccccc2)cc1`
Response line: MET

Prompt line: Check this compound for % Inhibition at or above 10%: `Cc1c(Cn2nc(Cl)c(N3CCNCC3)cc2=O)cccc1NC(=O)Nc1ccc(-c2ccccc2)cc1`
Response line: MET

Prompt line: Check this compound for % Inhibition at or above 10%: `O=C(Cn1c(SCc2cccc(F)c2F)cc(=O)c2ccccc21)N(CCCn1ccnc1)Cc1ccc(-c2ccc(C(F)(F)F)cc2)cc1`
Response line: MET

Prompt line: Check this compound for % Inhibition at or above 10%: `O=C(Nc1ccc(Cn2nc(Cl)c(N3CCNCC3)cc2=O)cc1)Nc1ccc(-c2ccccc2)cc1`
Response line: NOT MET

Prompt line: Check this compound for % Inhibition at or above 10%: `COc1ccc2nccc([C@@H](O)CN3CCC(NC(=O)c4cc5c(Cl)cc(Cl)cc5[nH]4)CC3)c2c1`
Response line: NOT MET

Prompt line: Check this compound for % Inhibition at or above 10%: `Cn1cncc1C(=O)Nc1cccc(-c2ccc(-c3nc4ccccc4[nH]3)cc2)c1`
Response line: MET

Prompt line: Check this compound for % Inhibition at or above 10%: `COc1ccc(C=CC(=O)N2CCC(CN3CCC(c4c[nH]c5ccccc45)CC3)CC2)cc1OC`
Response line: NOT MET

Prompt line: Check this compound for % Inhibition at or above 10%: `Cc1cccc2[nH]c(-c3cccc(-c4cccc(NC(=O)c5cncn5C)c4)c3)nc12`
Response line: MET

Prompt line: Check this compound for % Inhibition at or above 10%: `CC(C)c1ccc(C=CC(=O)N2CCC(CCN3CCC(c4c[nH]c5ccccc45)CC3)CC2)cc1`
Response line: MET

Prompt line: Check this compound for % Inhibition at or above 10%: `Cc1cccc2[nH]c(-c3ccc(-c4cccc(NC(=O)c5cncn5C)c4)cc3)nc12`
Response line: NOT MET

Prompt line: Check this compound for % Inhibition at or above 10%: `O=C(Cn1c(CCc2cccc(F)c2F)cc(=O)c2ccccc21)N(CCN1CCCCC1)Cc1ccc(-c2ccc(C(F)(F)F)cc2)cc1`
Response line: NOT MET

Prompt line: Check this compound for % Inhibition at or above 10%: `Cn1cncc1C(=O)Nc1cccc(-c2cccc(-c3nc4ccc(F)cc4[nH]3)c2)c1`
Response line: MET

Prompt line: Check this compound for % Inhibition at or above 10%: `O=C(Cn1c(CCc2cccc(F)c2F)cc(=O)c2cccnc21)N(CCCn1ccnc1)Cc1ccc(-c2ccc(C(F)(F)F)cc2)cc1`
Response line: NOT MET

Prompt line: Check this compound for % Inhibition at or above 10%: `O=C(Nc1ccc(Cn2nc(Cl)c(N3CCCNCC3)cc2=O)cc1)Nc1ccc(-c2ccccc2)cc1`
Response line: NOT MET

Prompt line: Check this compound for % Inhibition at or above 10%: `CC(C)(C)NC(=O)COC(=O)c1c2c(nc3ccccc13)C(=Cc1ccc3c(c1)OCO3)CCC2`
Response line: MET

Prompt line: Check this compound for % Inhibition at or above 10%: `Cn1cncc1C(=O)Nc1cccc(-c2ccc(-c3nc4ccc(C(F)(F)F)cc4[nH]3)cc2)c1`
Response line: NOT MET

Prompt line: Check this compound for % Inhibition at or above 10%: `O=C(/C=C/c1ccc(F)c(C(F)(F)F)c1)N1CCC(CN2CCC(c3c[nH]c4ccccc34)CC2)CC1`
Response line: NOT MET

Prompt line: Check this compound for % Inhibition at or above 10%: `COc1cc(C=CC(=O)N2CCC(CN3CCC(c4c[nH]c5ccccc45)CC3)CC2)cc(OC)c1`
Response line: NOT MET

Prompt line: Check this compound for % Inhibition at or above 10%: `O=C(Cn1c(SCc2cccc(F)c2F)cc(=O)c2ccccc21)N(CCN1CCCCC1)Cc1ccc(-c2ccc(C(F)(F)F)cc2)cc1`
Response line: MET

Prompt line: Check this compound for % Inhibition at or above 10%: `O=C1NC(=S)N/C1=C/C=C/c1ccc([N+](=O)[O-])o1`
Response line: MET

Prompt line: Check this compound for % Inhibition at or above 10%: `Cc1ccc(Cn2nc(Cl)c(N3CCCNCC3)cc2=O)cc1NC(=O)Nc1ccc(-c2ccccc2)cc1`
Response line: MET

Prompt line: Check this compound for % Inhibition at or above 10%: `Cc1ccc(/C=C/C(=O)N2CCC(CCN3CCC(c4c[nH]c5ccccc45)CC3)CC2)cc1C`
Response line: MET

Prompt line: Check this compound for % Inhibition at or above 10%: `COc1ccc(NC(=O)Nc2ccc(-c3ccccc3)cc2)cc1Cn1nc(Cl)c(N2CCCNCC2)cc1=O`
Response line: MET

Prompt line: Check this compound for % Inhibition at or above 10%: `COc1ccc2nc(-c3ccc(C(=O)NCCCN4CCN(c5cc(Cl)ccc5OC)CC4)cc3OC)[nH]c2c1`
Response line: NOT MET

Prompt line: Check this compound for % Inhibition at or above 10%: `CC(=O)Nc1ccc(CN(C)C2CCN(c3cc(NC(=O)c4cccc(C)c4)ccn3)CC2)cc1`
Response line: NOT MET

Prompt line: Check this compound for % Inhibition at or above 10%: `O=C(Cn1c(SCc2cccc(F)c2F)cc(=O)c2ccccc21)N(CCn1ccnc1)Cc1ccc(-c2ccc(C(F)(F)F)cc2)cc1`
Response line: MET

Prompt line: Check this compound for % Inhibition at or above 10%: `CCCCCCn1c(Sc2ccc(C#N)c([N+](=O)[O-])c2)nnc1-c1ccc(OC)cc1`
Response line: MET

Prompt line: Check this compound for % Inhibition at or above 10%: Cc1ccc(Cn2cnc(N3CC(C)NC(C)C3)cc2=O)cc1NC(=O)Nc1ccc(-c2ccccc2)cc1 (centres unmarked)
Response line: MET
